Assay System: Plasmodium falciparum protein kinase 6 (PK6, PF3D7_1337100) (UniProt Q8IDW1)
Assay Procedure: PfPK6 kinase inhibitors, biochemical, TCAMS library (AID 1159586)
Test Settings: recombinant PfPK6, Kinase-Glo ATP depletion luminescence
Potency and affinity values are given separately. Active and inactive are the calls of the source. No rule for the calls is given here.
Observed Property: outcome

Here's what some known entries look like.
Cc1cccn2c(=O)c3cc(C(=O)NCCc4ccccc4)c(=N)n(CCCOC(C)C)c3nc12 : inactive
CNC(=O)c1cnc(Nc2ccc(N3CCN(C)CC3)cc2)nc1Nc1cccc([N+](=O)[O-])c1 : inactive
CC(C)NCc1ccc(-c2cccc(NC(=O)c3ccc(C#N)cc3)c2)cc1 : inactive
COc1cc(C=CC(=O)N2CCC3(CC2)CC(=O)c2ccccc2O3)cc(OC)c1OC : inactive
Fc1ccc2[nH]c3c(NCCCN4CCOCC4)ncnc3c2c1 : inactive

Request: Query the reported outcome for Plasmodium falciparum protein kinase 6 (PK6, PF3D7_1337100) (UniProt Q8IDW1); item: COc1ccc(C2CC(c3cccs3)=NN2C(=O)c2ccco2)cc1OC (centres undefined)
Response: inactive

Request: Query the reported outcome for Plasmodium falciparum protein kinase 6 (PK6, PF3D7_1337100) (UniProt Q8IDW1); item: CC(C)(C)OC(=O)N[C@@H](Cc1ccccc1)C(=O)Nc1cccc(-c2cccc(NC(=O)[C@H](Cc3ccccc3)NC(=O)OC(C)(C)C)c2)c1
Response: inactive

Request: Query the reported outcome for Plasmodium falciparum protein kinase 6 (PK6, PF3D7_1337100) (UniProt Q8IDW1); item: COc1ccc(-c2cc(-c3nc4ccc(C(=O)N5CCOCC5)cc4[nH]3)c(=O)n(C)c2)cc1OC
Response: inactive

Request: Query the reported outcome for Plasmodium falciparum protein kinase 6 (PK6, PF3D7_1337100) (UniProt Q8IDW1); item: Cc1cc(=O)c(-c2cccc(Oc3ccc(Cl)cc3)c2)c(C)[nH]1
Response: inactive

###

Assay System: Calcium-dependent protein kinase 1 (Plasmodium falciparum (isolate 3D7))
Assay Procedure: PfCDPK1 kinase inhibitors, biochemical, TCAMS library (AID 1159585);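 also: inhibitors leave more ATP so luminescence rises with inhibition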
Test Settings: recombinant PfCDPK1, Kinase-Glo ATP depletion luminescence
Potency and affinity values are given separately. The source made the active and inactive calls. The limit is not given here; nearly all actives have IC50 up to about 0.98 µM.
Observed Property: outcome

O=C(Nc1cccc(F)c1)NC1CCN(c2ccnc3cc(Cl)ccc23)CC1 : inactive
CN(c1ncc(-c2cccc(CNCc3ccccc3O)c2)cn1)C1CCCCC1 : inactive
OC(CNc1ccnc(Nc2ccc(Cl)cc2)n1)c1ccc(C(F)(F)F)cc1 (centres undefined) : inactive
Cc1cc2nc(-c3ccc(C(=O)NCc4cccc(F)c4)cc3)[nH]c2cc1C : inactive
CO/C(=C\C=C\c1cc2cc(Cl)c(Cl)cc2[nH]1)C(=O)NCCCN1CCN(c2cccc(OC)c2)CC1 : inactive

Request: Name the recorded outcome for CCN(CCC1(c2ccc(Cl)c(Cl)c2)CN(C(=O)c2cc(OC)c(OC)c(OC)c2)CCO1)[C@@H]1C[C@@H]2c3ccccc3C[C@@H]21 (some centres undefined) .
Response: inactive

Request: Name the recorded outcome for O=C(C=Cc1ccc(Cl)c(Cl)c1)NCCCCCN1CCC(CCNS(=O)(=O)c2ccc(F)cc2)CC1 .
Response: inactive

Request: Name the recorded outcome for CCOc1ccc2nc(C)cc(NN=Cc3ccccc3F)c2c1 .
Response: inactive

Request: Name the recorded outcome for CC(C)CCN=C(N)Nc1ccc(OCCCOc2ccc(NC(N)=NCCC(C)C)cc2)cc1 .
Response: inactive

###

Assay Procedure: inhibition of 3D7 malaria parasite growth – strain 3D7 (AID 2306);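 also: 0% = DMSO wells and 100% = chloroquine plus artemisinin control wells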
Test Settings: P. falciparum 3D7 erythrocytic growth, LDH absorbance, 72 h; at 2 µM; stronger effect = higher value
Observed Property: growth inhibition (%)
Kindly provide the numeric value in % only, without the unit symbol.

Request: Name the recorded growth inhibition for CCN(CC)S(=O)(=O)c1ccc(C=CC(=O)Nc2cc(Cl)ccc2N2CCOCC2)cc1 .
Response: 90

Request: Name the recorded growth inhibition for N#Cc1ccc(N2CCN(Cc3cccc(-c4cccc(-c5nc6ccc(F)cc6[nH]5)c4)c3)CC2)nc1 .
Response: 90

Request: Name the recorded growth inhibition for Nc1ccc(Oc2ccc(Cc3cnc(N)nc3N)cc2)cc1 .
Response: 86

Request: Name the recorded growth inhibition for NC(N)=NC(=O)Nc1cc(Cl)c(Cl)c(C(F)(F)F)c1 .
Response: 100

Request: Name the recorded growth inhibition for COc1cc(OC)nc(C(Sc2ccc(NC(=O)c3cccs3)cc2)c2ccccc2)n1 (stereo not given) .
Response: 97

###

Kindly state inhibition for each of the entries shown.
Assay Procedure: HepG2 cytotoxicity, primary screen, cytotoxicity control for P. falciparum antimalarial project, cell-based, ATP luminescence (AID 2303);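 also: 0% = DMSO wells and 100% = digitonin-killed cells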
Test Settings: HepG2 viability, 24-48 h, at 10 µM, stronger effect = higher value
Kindly provide the numeric value in % only, without the unit symbol.

Request: Name the recorded inhibition for COc1cc(C)c(C(O)CNC(C)CCc2ccccc2)cc1C (stereo unspecified) .
Response: 1

Request: Name the recorded inhibition for COc1ccc(-c2cccc(NC(=O)c3ccc(C#N)cc3)c2)cc1CN1CCN(C)CC1 .
Response: 24

Request: Name the recorded inhibition for CN1CCN(c2ccnc3ccc(NC(=O)c4ccc(Cl)c(Cl)c4)cc23)CC1 .
Response: 4

Request: Name the recorded inhibition for CCCCCc1cnc2nc(N)nc(N)c2c1C .
Response: 64

Request: Name the recorded inhibition for CC1(C)N=C(N)N=C(N)N1OCCCOc1cccc(C(=O)O)c1 .
Response: 73

Request: Name the recorded inhibition for CS(=O)(=O)c1ccc(CCNCc2ccc(-c3ccc(CNC4Cc5ccccc5C4)cc3)nc2)cc1 .
Response: 18

Request: Name the recorded inhibition for O=C(Nc1cccc(CN2CCN(C(=O)c3cccc(Cl)c3)CC2)c1)c1ccco1 .
Response: 7

Request: Name the recorded inhibition for COc1cc(Nc2nccn3c(-c4ccsc4)cnc23)cc(OC)c1OC .
Response: 26

Request: Name the recorded inhibition for Clc1ccc(CNCCCCCCNCc2ccc(Cl)cc2)cc1 .
Response: 53

Request: Name the recorded inhibition for O=C(Nc1ccnc(-c2cccnc2)n1)c1cc(C(F)(F)F)cc(C(F)(F)F)c1 .
Response: 22

Request: Name the recorded inhibition for CCN(CC)CCN1C(=O)c2oc3ccc(Cl)cc3c(=O)c2C1c1ccc(SC)cc1 (stereo unspecified) .
Response: -5

###

Assay System: L-lactate dehydrogenase (Plasmodium falciparum (isolate CDC / Honduras))
Assay Procedure: PfLDH activity inhibition – cell lysate, 3D7 strain, counter-screen for P. falciparum growth inhibition project (AID 2304);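 also: 0% = vehicle and 100% = reference inhibitor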
Test Settings: P. falciparum 3D7 crude extract, LDH APAD/NBT absorbance; at 2 µM; stronger effect = higher value
Observed Property: inhibition (%)
Kindly provide the numeric value in % only, without the unit symbol.

Request: Name the recorded inhibition for COc1ccc(-c2nc3cccnc3n2CC(=O)Nc2c(C)cc(C)cc2C)c(OC)c1 .
Response: 1

Request: Name the recorded inhibition for O=C(C=Cc1cc([N+](=O)[O-])ccc1Cl)N1CCC(CCN2CCC(c3c[nH]c4ccccc34)CC2)CC1 .
Response: -2

Request: Name the recorded inhibition for O=C(O)c1cccc2c(-c3ccncc3)cccc12 .
Response: -1

Request: Name the recorded inhibition for Cc1ccc2nc(NC#N)[nH]c2c1 .
Response: 2

Request: Name the recorded inhibition for CN1CCN(CCCN(Cc2csc(-c3ccc(CNCc4ccccc4)cc3)n2)S(=O)(=O)c2ccccc2Cl)CC1 .
Response: -5

Request: Name the recorded inhibition for CC(NCC(O)Cn1c2ccccc2c2ccccc21)c1ccccc1 (stereo not given) .
Response: 9

Request: Name the recorded inhibition for O=C(Nc1cccc(-c2ccc(-c3nc4ccc(C(F)(F)F)cc4[nH]3)cc2)c1)c1csnn1 .
Response: 3

Request: Name the recorded inhibition for Cc1ccc(C(=O)NC2C(=O)NC2c2ccccc2)c(C)c1 (stereo not given) .
Response: -4

Request: Name the recorded inhibition for O=C(/C=C/c1ccc(Cl)c(Cl)c1)NCCCCCN1CCC(NC(=O)Nc2ccc3c(c2)OCO3)CC1 .
Response: 6

Request: Name the recorded inhibition for Cn1nc(-c2cccc(CNC3CCc4ccccc43)c2)c2cnc(NC3CCCC3)nc21 (stereo not given) .
Response: -1

###

Assay System: Plasmodium falciparum protein kinase 6 (PK6, PF3D7_1337100)
Assay Procedure: PfPK6 kinase inhibitors, biochemical, TCAMS library (AID 1159586)
Test Settings: recombinant PfPK6, Kinase-Glo ATP depletion luminescence
Results with a measured potency or affinity are listed apart. The source made the active and inactive calls. How the calls were made is not given here.
Observed Property: outcome

Here's what some known entries look like.
CCc1c(CCNCCCCCCNCCc2ccc([N+](=O)[O-])cc2)ccc(OC)c1OC : inactive
O=C(/C=C/c1ccc(Cl)c(Cl)c1)N1CCC(NCc2ccc3[nH]ccc3c2)CC1 : inactive
Clc1cccc(C=NNc2ccnc3ccccc23)c1 : inactive
O=C(NCCCCN1CCC[C@@H]2c3cccc(O)c3CC[C@@H]21)c1ccc(-c2ccccc2)cc1 : inactive
O=C1COc2ccccc2N1C/C=C(\CN1CCC(c2ccccc2)CC1)c1cc(Cl)cc(Cl)c1 : inactive
COc1ccc2nccc([C@@H](O)CN3CCC(NCc4ccc5sc(=O)[nH]c5c4)CC3)c2c1 : inactive

Request: Name the recorded outcome for O=C(Nc1ccccc1Br)N[C@@H]1CCN(c2ccnc3ccccc23)C1 .
Response: inactive

Request: Name the recorded outcome for C[C@H](Nc1nc(C(Oc2ccccc2)c2ccccc2)nc2[nH]ncc12)c1ccccc1 (some centres not stated) .
Response: inactive

Request: Name the recorded outcome for O=C1Nc2cccc3c2C1(CCCCN1CCC(c2c(-c4ccc(F)cc4)[nH]c4ccccc24)CC1)CCC3 (configuration not stated) .
Response: inactive

These data points were gathered from PubChem BioAssay.
